Assay: clinical
Conditions: both, human, in vivo, AUC0-24 (PAR)
Description: Subjects attended a Screening visit at the clinic within 14 days prior to enrolment (Day 1). […] Mean plasma concentration-time profiles were plotted by treatment on linear and semi-logarithmic scales. […] The point estimates and confidence limits were determined using the log transformed data and then transformed back to the original scale. […]
quantity_kind: AUC(0-t) (ng·h/mL)
The answer is to be given in ng·h/mL; state only the numeric part.

Give recorded AUC(0-t). Fc1ccc([C@@H]2CCNC[C@H]2COc2ccc3c(c2)OCO3)cc1 [Paroxetine, paroxetine, reference compound]
452

----------
Assay: clinical
Details: both, human, in vivo, Tmax
quantity_kind: Tmax (h)
Field: numeric (h). Do not append units.

Fill in Tmax for record CNCC[C@H](Oc1cccc2ccccc12)c1cccs1 [Duloxetine, duloxetine, reference compound]
4

----------
Assay: clinical
Conditions: both, human, in vivo, Tmax
quantity_kind: Tmax (h)
Just the number please, in h, no unit attached.

Identify Tmax associated with the compound Fc1ccc([C@@H]2CCNC[C@H]2COc2ccc3c(c2)OCO3)cc1 [Paroxetine, paroxetine, reference compound]
4
